- System: Enterobacter cloacae K 84-10
- test.details: in vitro antibacterial MIC, agar plate dilution
- Assay type: cell-based
- measurement.context: Enterobacter cloacae, K8410, 18 h, 35° C., read-out: MIC
Recorded MIC by entry
Field: numeric (µg/mL). Do not append units.

# example entries with known answers
CCn1cc(C(=O)O)c(=O)c2cc(F)c(N3CCN(C)C(c4ccn(C)n4)C3)cc21 (stereo not shown) [Example 109]	16
O=C(O)c1cn(C2CC2)c2cc(N3CCNC(C4CC4)C3)c(F)cc2c1=O (stereo not shown) [Example 96]	0.015
CCn1cc(C(=O)O)c(=O)c2cc(F)c(N3CCNC(c4cccnc4)C3)cc21 (stereo not shown) [Example 122]	1
CCn1cc(C(=O)O)c(=O)c2c(F)c(F)c(N3CCN(C)CC3)c(F)c21 [Example 85]	0.12
CCn1cc(C(=O)O)c(=O)c2cc(F)c(N3CCNC(c4ccncc4)C3)c(F)c21 (stereo not shown) [Example 127]	2
CN1CCN(c2c(F)c(F)c3c(=O)c(C(=O)O)cn(C4CC4)c3c2F)CC1 [Example 111]	0.004

// returns reported MIC for input CCCCCCOCC1CN(c2cc3c(cc2F)c(=O)c(C(=O)O)cn3CC)CCN1C (stereo not shown) [Example 78]
64

So what's the measured MIC for this one? O=C(O)c1cn(C2CC2)c2cc(N3CCNC(c4cc[nH]n4)C3)c(F)cc2c1=O (stereo not shown) [Example 121]
0.25

Could you tell me which MIC is on file for O=C(O)c1cn(C2CC2)c2cc(N3CCNC(c4cc[nH]c4)C3)c(F)cc2c1=O (stereo not shown) [Example 119] ?
0.3

Could you tell me which MIC is on file for CCn1cc(C(=O)O)c(=O)c2cc(F)c(N3CCN(C)C(c4ccnn4C)C3)cc21 (stereo not shown) [Example 110] ?
4

* * *

- System: Pseudomonas aeruginosa CMC 83-20
- test.details: in vitro antibacterial MIC, agar plate dilution
- Format: cell-based
- measurement.context: Pseudomonas aeruginosa, CMC8320, 18 h, 35° C., read-out: MIC
Where a name gives a salt, the structure may show the parent alone.
Below is a list of entries, each paired with its recorded MIC value.
Write down the numeric answer in µg/mL and omit the unit.

Sample records with MIC:
O=C(O)c1cn(C2CC2)c2cc(N3CCNC(c4ccco4)C3)c(F)cc2c1=O (stereo not drawn)	8
O=C(O)c1cn(C2CC2)c2cc(N3CCNC(CF)C3)c(F)cc2c1=O (stereo not drawn)	1
CCn1cc(C(=O)O)c(=O)c2cc(F)c(N3CCNC(c4ccoc4)C3)cc21 (stereo not drawn)	8
O=C(O)c1cn(C2CC2)c2cc(N3CCNC(c4ccsc4)C3)c(F)cc2c1=O (stereo not drawn) [Example 98, monohydrochloride]	4
CN1CCN(c2c(F)c(F)c3c(=O)c(C(=O)O)cn(C4CC4)c3c2F)CC1	4

Find the recorded MIC belonging to O=C(O)c1cn(C2CC2)c2cc(N3CCNC(c4ccccn4)C3)c(F)cc2c1=O (stereo not drawn) and report it.
16

Can you look up the measured MIC of CN1CCN(c2cc3c(cc2F)c(=O)c(C(=O)O)cn3C2CC2)CC1C1CC1 (stereo not drawn) for me?
16

Fill in the blank: the reported MIC of O=C(O)c1cn(C2CC2)c2cc(N3CCNC(c4cc[nH]n4)C3)c(F)cc2c1=O (stereo not drawn) is ____.
16

May I ask what MIC has been recorded for O=C(O)c1cn(C2CC2)c2cc(N3CCNC(c4ccoc4)C3)c(F)cc2c1=O (stereo not drawn) ?
4

Would you mind telling me what MIC value was observed for O=C(O)c1cn(C2CC2)c2cc(N3CCNC(c4cc[nH]c4)C3)c(F)cc2c1=O (stereo not drawn) ?
2

* * *

- Test system: Enterobacter cloacae VGH 84-37
- test.details: in vitro antibacterial MIC, agar plate dilution
- Format: cell-based
- measurement.context: Enterobacter cloacae, VGH8437, 18 h, 35° C., read-out: MIC
The compounds listed here are annotated with their MIC.
The figure you give is taken to be in µg/mL; do not add the unit.

See these solved cases before continuing.
CCn1cc(C(=O)O)c(=O)c2cc(F)c(N3CCNC(c4cccs4)C3)cc21 (centres unmarked) [Example 26]	0.5
CCn1cc(C(=O)O)c(=O)c2cc(F)c(N3CCNC(c4ccsc4)C3)cc21 (centres unmarked) [Example 30]	0.12
CCn1cc(C(=O)O)c(=O)c2cc(F)c(N3CCNC(c4ccc(Cl)s4)C3)cc21 (centres unmarked) [Example 34]	1
CCn1cc(C(=O)O)c(=O)c2cc(F)c(N3CCNC(COC)C3)cc21 (centres unmarked) [Example 7]	0.25
CCCCCCOCC1CN(c2cc3c(cc2F)c(=O)c(C(=O)O)cn3CC)CCN1C (centres unmarked) [Example 78]	64

MIC for CCn1cc(C(=O)O)c(=O)c2cc(F)c(N3CCNC(CN(C)C)C3)cc21 (centres unmarked) [Example 2] ?
1

* * *

- System: Pseudomonas aeruginosa LL-1244
- test.details: in vitro antibacterial MIC, agar plate dilution
- Format: cell-based
- measurement.context: Pseudomonas aeruginosa, LL1244, 18 h, 35° C., read-out: MIC
Where a name gives a salt, the structure may show the parent alone.
Below is a list of entries, each paired with its recorded MIC value.
# unit: µg/mL | format: bare number

O=C(O)c1cn(C2CC2)c2cc(N3CCNC(CF)C3)c(F)cc2c1=O (stereo not shown)	2
CCn1cc(C(=O)O)c(=O)c2cc(F)c(N3CCNC(c4ccoc4)C3)cc21 (stereo not shown)	8
CCn1cc(C(=O)O)c(=O)c2cc(F)c(N3CCNC(c4ccccn4)C3)c(F)c21 (stereo not shown)	8

I'd like to know its MIC. The compound in question is CN1CCN(c2cc3c(cc2F)c(=O)c(C(=O)O)cn3C2CC2)CC1C1CC1 (stereo not shown)
16

Given the entry O=C(O)c1cn(-c2ccc(F)cc2)c2cc(N3CCNC(c4ccsc4)C3)c(F)cc2c1=O (stereo not shown) , report its measured MIC.
16

Using the record for CCn1cc(C(=O)O)c(=O)c2c(F)c(F)c(N3CCNC(C)C3)c(F)c21 (stereo not shown) , report its MIC.
8

Recorded MIC of CCn1cc(C(=O)O)c(=O)c2cc(F)c(N3CCN(C)C(CF)C3)c(F)c21 (single isomer, unassigned) [Example 114] , please.
16

Entry CCn1cc(C(=O)O)c(=O)c2cc(F)c(N3CCNC(CF)C3)c(F)c21 (racemic) [Example 63] : reported MIC = ?
8

What value of measured MIC is listed for O=C(O)c1cn(C2CC2)c2cc(N3CCNC(c4ccco4)C3)c(F)cc2c1=O (stereo not shown) [Example 99, monohydrochloride] ?
4

Find the recorded MIC belonging to O=C(O)c1cn(C2CC2)c2cc(N3CCNC(c4ccsc4)C3)c(F)cc2c1=O (stereo not shown) [Example 98, monohydrochloride] and report it.
2

Value lookup for MIC; key = CCn1cc(C(=O)O)c(=O)c2c(F)c(F)c(N3CCNC(c4ccsc4)C3)c(F)c21 (stereo not shown)
32

* * *

Each entry below carries its reported MIC.
- Test system: Serratia marcescens K 84-18
- test.details: in vitro antibacterial MIC, agar plate dilution
- Assay type: cell-based
- measurement.context: Serratia marcescens, K8418, 18 h, 35° C., read-out: MIC
Give just the number in µg/mL; leave the unit off.

As a guide, the following entries are already answered.
O=C(O)c1cn(C2CC2)c2cc(N3CCNC(c4ccccn4)C3)c(F)cc2c1=O (centres unmarked)	0.5
CCn1cc(C(=O)O)c(=O)c2cc(F)c(N3CCNC(c4ccc(C)s4)C3)cc21 (centres unmarked)	2

Consider the molecule CCCCCCOCC1CN(c2cc3c(cc2F)c(=O)c(C(=O)O)cn3CC)CCN1 (centres unmarked) and give its measured MIC.
16

Any idea what its MIC is? The molecule is CCn1cc(C(=O)O)c(=O)c2cc(F)c(N3CCNC(c4ccsc4)C3)cc21 (centres unmarked)
0.5

Form field: reported MIC of CN1CCN(c2cc3c(cc2F)c(=O)c(C(=O)O)cn3C2CC2)CC1c1ccsc1 (centres unmarked)
2

Any idea what its MIC is? The molecule is O=C(O)c1cn(C2CC2)c2cc(N3CCNC(c4cc[nH]n4)C3)c(F)cc2c1=O (centres unmarked)
0.25

Fill in: MIC of CCn1cc(C(=O)O)c(=O)c2cc(F)c(N3CCNC(c4ccncc4)C3)cc21 (centres unmarked) is ___
8

Can you share its MIC? I mean this molecule: CCn1cc(C(=O)O)c(=O)c2cc(F)c(N3CCNC(CF)C3)c(F)c21 (racemic) [Example 63]
0.06

* * *

- System: Staphylococcus epidermidis IO 83-58
- test.details: in vitro antibacterial MIC, agar plate dilution
- Assay type: cell-based
- measurement.context: IO8358, 18 hours, 35° C., read-out: MIC
result.type: MIC (µg/mL)
Quick note: give the figure in µg/mL, leave out the unit.

Illustrative cases are given below, each with its answer.
CCCCCCOCC1CN(c2cc3c(cc2F)c(=O)c(C(=O)O)cn3CC)CCN1C (stereo not shown)	8
CCn1cc(C(=O)O)c(=O)c2cc(F)c(N3CCN(C)CC3)c(F)c21	0.25
CCn1cc(C(=O)O)c(=O)c2cc(F)c(N3CCNC(c4ccco4)C3)cc21 (stereo not shown)	0.25

Consider the additional compound presented here.
May I ask what MIC has been recorded for O=C(O)c1cn(C2CC2)c2cc(N3CCNC(c4ccco4)C3)c(F)cc2c1=O (stereo not shown) ?
0.015
